B1: PhoQ; a variant is named by its letters at X, in order, P23837 (parent)
chain: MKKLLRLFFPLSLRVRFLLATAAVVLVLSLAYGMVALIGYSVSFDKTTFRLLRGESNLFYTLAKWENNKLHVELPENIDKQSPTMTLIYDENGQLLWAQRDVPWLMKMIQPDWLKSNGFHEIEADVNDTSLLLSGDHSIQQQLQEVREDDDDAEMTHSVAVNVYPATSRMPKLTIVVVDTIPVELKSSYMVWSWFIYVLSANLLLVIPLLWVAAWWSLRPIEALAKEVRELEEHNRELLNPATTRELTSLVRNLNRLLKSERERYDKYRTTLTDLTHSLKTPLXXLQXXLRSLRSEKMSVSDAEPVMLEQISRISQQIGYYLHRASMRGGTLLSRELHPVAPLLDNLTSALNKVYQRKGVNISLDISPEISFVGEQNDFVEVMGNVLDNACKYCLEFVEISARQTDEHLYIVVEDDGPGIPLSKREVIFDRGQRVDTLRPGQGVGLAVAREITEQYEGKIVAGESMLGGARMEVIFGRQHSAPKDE

variants of: B1; assay: enrichment ratio after two sorts for PhoP signalling (ratio (wild type AVST 3.29)); higher = more functional; conditions: with PhoP (E. coli)
Whole data set: some 140,000 sequences, median “enrichment ratio after two sorts for PhoP signalling” near 0, cut for the highest 2% near 11. Shown is part of a subset that was picked to be rich in the highest values.
readoutLabel: enrichment ratio

Quick check: enrichment ratio of `SKPA` ?
≤ 0.25

// enrichment ratio lookup, key: `RNCC`
≤ 0.25

Return reported enrichment ratio; argument: `LVPD`
≤ 0.25

Looking for the measured enrichment ratio of `IQHV` , can you help?
≤ 0.25

Endpoint output: enrichment ratio of `NHLE` . Value?
≤ 0.25

Value lookup for enrichment ratio; key = `MKLE`
≤ 0.25

Could you tell me which enrichment ratio is on file for `WRGG` ?
≤ 0.25

Given the variant `DGSI` , what is its reported enrichment ratio?
≤ 0.25

Query (variant): `PQFI` ; field requested: enrichment ratio
≤ 0.25

Looking for the measured enrichment ratio of `HART` , can you help?
≤ 0.25

Would you kindly share the measured enrichment ratio for `KIFY` ?
≤ 0.25

Looking for the measured enrichment ratio of `CSGS` , can you help?
≤ 0.25

Any idea what enrichment ratio was measured for `IQAI` ?
≤ 0.25

Return reported enrichment ratio; argument: `SRES`
≤ 0.25

Which measured enrichment ratio value corresponds to `PPSE` ?
≤ 0.25

// returns reported enrichment ratio for input `WRVV`
≤ 0.25

Which enrichment ratio value is on record for `GKCK` ?
≤ 0.25

Any idea what its enrichment ratio is? The variant is `LQWA`
≤ 0.25

Requested read-out: enrichment ratio. Entry: `GRMN`
≤ 0.25

Can you look up the measured enrichment ratio of `AGDI` for me?
≤ 0.25

Need enrichment ratio, item `AHLE`
12.9

# enrichment ratio lookup, item `TFCG`
5.19

May I ask what enrichment ratio has been recorded for `TGCK` ?
37.2

Report enrichment ratio for `QPLE` please.
≤ 0.25

Requested read-out: enrichment ratio. Entry: `IQGQ`
≤ 0.25

Endpoint output: enrichment ratio of `ITTH` . Value?
≤ 0.25

For the variant shown here, `TKLQ` , give the reported enrichment ratio.
6.41

Any idea what enrichment ratio was measured for `KALE` ?
≤ 0.25

enrichment ratio lookup needed for `VFHM` , thanks.
≤ 0.25

Query (variant): `TGCV` ; field requested: enrichment ratio
7.81

Entry `TGLQ` has what enrichment ratio?
9.97

Value lookup for enrichment ratio; key = `GGLQ`
3.13

Record request: enrichment ratio value, item `WLAI`
≤ 0.25

State the recorded enrichment ratio for this entry: `PQRE`
≤ 0.25

Consider the variant `TKLE` and give its measured enrichment ratio.
12.7

If you can, please state the reported enrichment ratio value of `AITV` .
6.12

Would you kindly share the measured enrichment ratio for `AQLQ` ?
5.87
